Data provenance: patent US11220503B2

- assay_overview: Compound tissue distribution (brain/plasma)
- Type: in vivo
- condition_parameters: brain and plasma, po; rat, 1 mg/kg p.o. in 5% DMSO+70% PEG400+25% H2O, one hour; read-out: Brain/Plasma ratio
quantity: Kp at 1 h

smiles_record=Cc1cc(-c2nnc3c4ccccc4c(OCc4ccc(C(=O)NCC5CC5)cn4)nn23)no1 quantity="Kp at 1 h" readout_value=0.044

###

- experimental_target: α5β3γ2 receptor (Homo sapiens, UniProt P18507+P31644)
- Construct: expressed in transfected cells; host or cells: HEK-293 (stably transfected)
- Sequence (P31644 32-462): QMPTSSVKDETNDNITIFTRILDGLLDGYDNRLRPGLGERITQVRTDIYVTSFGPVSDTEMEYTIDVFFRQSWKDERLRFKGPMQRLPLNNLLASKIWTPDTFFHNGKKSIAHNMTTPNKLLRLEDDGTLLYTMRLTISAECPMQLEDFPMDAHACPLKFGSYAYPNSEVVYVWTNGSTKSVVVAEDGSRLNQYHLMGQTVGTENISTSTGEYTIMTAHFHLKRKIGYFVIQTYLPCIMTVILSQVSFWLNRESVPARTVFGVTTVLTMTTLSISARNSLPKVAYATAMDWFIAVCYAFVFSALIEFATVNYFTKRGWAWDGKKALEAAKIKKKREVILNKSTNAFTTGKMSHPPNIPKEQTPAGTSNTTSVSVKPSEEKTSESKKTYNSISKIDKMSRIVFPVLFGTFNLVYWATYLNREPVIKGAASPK
- Sequence (P28472 26-473 isoform P28472-2 partner limits assumed): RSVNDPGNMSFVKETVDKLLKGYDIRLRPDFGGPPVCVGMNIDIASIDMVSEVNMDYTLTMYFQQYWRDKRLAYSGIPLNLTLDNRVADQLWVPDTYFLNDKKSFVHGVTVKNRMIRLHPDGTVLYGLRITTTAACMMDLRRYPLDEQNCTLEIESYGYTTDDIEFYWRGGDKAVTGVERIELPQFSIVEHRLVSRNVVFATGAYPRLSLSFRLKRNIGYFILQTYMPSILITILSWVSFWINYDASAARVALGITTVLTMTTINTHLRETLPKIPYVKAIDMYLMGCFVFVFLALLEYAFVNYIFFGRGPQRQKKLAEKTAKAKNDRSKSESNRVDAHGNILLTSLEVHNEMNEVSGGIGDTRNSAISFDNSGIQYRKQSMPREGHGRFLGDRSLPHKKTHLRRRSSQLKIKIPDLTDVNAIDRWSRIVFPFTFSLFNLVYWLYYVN
- Sequence (P18507 40-475): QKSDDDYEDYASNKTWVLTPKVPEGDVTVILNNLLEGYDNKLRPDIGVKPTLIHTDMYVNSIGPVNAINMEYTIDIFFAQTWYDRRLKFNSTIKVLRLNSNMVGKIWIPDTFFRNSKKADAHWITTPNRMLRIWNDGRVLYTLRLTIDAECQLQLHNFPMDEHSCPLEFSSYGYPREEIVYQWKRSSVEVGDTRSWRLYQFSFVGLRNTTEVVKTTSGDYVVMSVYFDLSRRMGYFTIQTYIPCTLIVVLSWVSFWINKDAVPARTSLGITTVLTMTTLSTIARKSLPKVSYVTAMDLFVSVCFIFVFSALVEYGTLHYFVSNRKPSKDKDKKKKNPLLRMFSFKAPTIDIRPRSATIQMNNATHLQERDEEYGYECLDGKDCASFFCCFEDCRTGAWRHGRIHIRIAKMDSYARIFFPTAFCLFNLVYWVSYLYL
- assay_overview: Supplementary data for cell level screening: new electrophysiology method (I. Lecker et al)
- Type: cell-based
- condition_parameters: ratio to the α5IA reference run above in the table (r4 or r29)
- Experimental: The inventors used electrophysiological methods to assay the inverse agonist efficacy of the substance to be tested. […] The currents were recorded by an EPC-10 amplifier and the PatchMaster software (HEKA). […] Then the current induced by GABA can be detected. […] ECS was switched to compounds solution and the effects of the compounds were detected. […] (4) Currents were analyzed with the PatchMaster (HEKA) software. The GABA currents before (Ipre) and after (Ipost) compounds perfusion were recorded respectively. […]
quantity: inverse agonism efficacy of the compound/α5IA inverse agonism efficacy

compound="CC(C)NC(=O)c1ccc(COc2nn3c(-c4cc(CO)on4)nnc3c3ccccc23)nc1 [Compound 38]" readout_value=3.023
compound="N#Cc1cc(C(=O)N[C@H]2CCC[C@@H]2O)ccc1COc1nn2c(-c3cc(CO)on3)nnc2c2ccccc12 [Compound 56]" readout_value=1.589
compound="Cc1cc(-c2nnc3c4ccccc4c(OCc4ccc(C(=O)NCCN5CCOCC5)cn4)nn23)no1 [Compound 12]" readout_value=1.098
compound="Cc1cc(-c2nnc3c4ccccc4c(OCc4cc(C(=O)N[C@H](C)CO)on4)nn23)no1 [Compound 58]" readout_value=1.554
compound="CS(=O)(=O)NNC(=O)c1ccc(COc2nn3c(-c4cc(CO)on4)nnc3c3ccccc23)nc1 [Compound 53]" readout_value=1.313

###

- experimental_target: α5β3γ2 receptor (Homo sapiens, UniProt P18507+P31644)
- Construct: expressed in transfected cells; host or cells: HEK-293 (stably transfected)
- assay_overview: Supplementary data for cell level screening: new electrophysiology method (I. Lecker et al)
- Format: cell-based
- condition_parameters: new method, CsCl intracellular solution; GABA 0.1˜0.3 CM; other procedures as previous method
Inverse agonism efficacy(%) values, listed per item
quantity: Inverse agonism efficacy(%)

smiles_record=Cc1cc(-c2nnc3c4ccccc4c(OCc4ccc(C(=O)NCC(F)(F)F)cn4)nn23)no1 experimental_target="α5β3γ2 receptor (Homo sapiens, UniProt P18507+P31644)" readout_value=−52%
smiles_record=O=C(NCCO)c1ccc(COc2nn3c(-c4cc(CO)on4)nnc3c3ccccc23)nc1 experimental_target="α5β3γ2 receptor (Homo sapiens, UniProt P18507+P31644)" readout_value=−26%
smiles_record=Cc1cc(-c2nnc3c4ccccc4c(OCc4ccc(C(=O)NC5CC5)cn4)nn23)no1 experimental_target="α5β3γ2 receptor (Homo sapiens, UniProt P18507+P31644)" readout_value=−26.5%
smiles_record=CC(C)NC(=O)c1ccc(COc2nn3c(-c4cc(CO)on4)nnc3c3ccccc23)nc1 experimental_target="α5β3γ2 receptor (Homo sapiens, UniProt P18507+P31644)" readout_value=−52.5%
smiles_record=O=C(c1ccc(COc2nn3c(-c4cc(CO)on4)nnc3c3ccccc23)nc1)N1CCS(=O)(=O)CC1 experimental_target="α5β3γ2 receptor (Homo sapiens, UniProt P18507+P31644)" readout_value=−25.5%
smiles_record=C[C@H](CO)NC(=O)c1ccc(COc2nn3c(-c4cc(CO)on4)nnc3c3ccccc23)c(C#N)c1 experimental_target="α5β3γ2 receptor (Homo sapiens, UniProt P18507+P31644)" readout_value=−31.6%
smiles_record=Cc1cc(-c2nnc3c4ccccc4c(OCc4ccc(C(N)=O)cn4)nn23)no1 experimental_target="α5β3γ2 receptor (Homo sapiens, UniProt P18507+P31644)" readout_value=−19.86%
smiles_record=O=C(c1ccc(COc2nn3c(-c4cc(CO)on4)nnc3c3ccccc23)nc1)N1CCC1 experimental_target="α5β3γ2 receptor (Homo sapiens, UniProt P18507+P31644)" readout_value=−22.2%
smiles_record=CS(=O)(=O)NNC(=O)c1ccc(COc2nn3c(-c4cc(CO)on4)nnc3c3ccccc23)nc1 experimental_target="α5β3γ2 receptor (Homo sapiens, UniProt P18507+P31644)" readout_value=−22.8%
smiles_record=COC1CCN(C(=O)c2ccc(COc3nn4c(-c5cc(C)on5)nnc4c4ccccc34)nc2)CC1 experimental_target="α5β3γ2 receptor (Homo sapiens, UniProt P18507+P31644)" readout_value=−33%
smiles_record=Cc1cc(-c2nnc3c4ccccc4c(OCc4ccc(C(=O)N[C@H](C)CO)cn4)nn23)no1 experimental_target="α5β3γ2 receptor (Homo sapiens, UniProt P18507+P31644)" readout_value=−21.33%
smiles_record=Cc1nc(-c2nnc3c4ccccc4c(OCc4ccc(C(=O)N[C@H](C)CO)cn4)nn23)no1 experimental_target="α5β3γ2 receptor (Homo sapiens, UniProt P18507+P31644)" readout_value=−25%
smiles_record=Cc1cc(-c2nnc3c4ccccc4c(OCc4ccc(C(=O)NN5CCOCC5)cn4)nn23)no1 experimental_target="α5β3γ2 receptor (Homo sapiens, UniProt P18507+P31644)" readout_value=−18.67%
